Listed below: GI50 values for each entry.
# System: NCI-H23
# procedure text: NCI tumour cell line growth inhibition, 48 h
Activity calls are given as the source filed them. No stated cut-off is given here; in the data, active = GI50 up to about 1.1 µM and inactive = higher.

[[record]]
entry_smiles = "C[Si](C)(c1ccc(C(=O)O)cc1)c1ccc(C(=O)O)cc1"
tested_system = "NCI-H23"
reading = "> 100 µM (inactive)"

[[record]]
entry_smiles = "Nc1cccc2cc(S(=O)(=O)Nc3ccc(C(=O)O)cc3)ccc12"
tested_system = "NCI-H23"
reading = "> 100 µM (inactive)"

[[record]]
entry_smiles = "O=C(C1=C(C(=O)c2ccccc2)SC2(S1)C(C(=O)c1ccccc1)=C(C(=O)c1ccccc1)Sc1c2ssc1=O)c1ccccc1"
tested_system = "NCI-H23"
reading = "> 100 µM (inactive)"


Alright, here's another compound for you.
Give the measured GI50 for `COc1ccc(C[C@H]2COC(=O)[C@@H]2Cc2cccc(Br)c2)cc1OC`
21.2 µM (inactive)
